The entries below come with measured logD values attached.
test: method code SF-AS, from DOI: 10.2298/jsc0810967p; conditions: pH 7.4
Answer using only a numeral; do not append any unit.

Check out these entries, answers already filled in.
| cpd smiles | logD |
| --- | --- |
| Cc1cccc(Cn2cnc3cc(C)c(C)cc32)c1 | 4.85 |
| COc1cccc(Cn2cnc3cc(C)c(C)cc32)c1 | 4.28 |
| Cc1cc2ncn(Cc3cccc(Cl)c3)c2cc1C | 5.05 |

Lab note: next compound to report on.
Cc1cc2ncn(Cc3cccc(F)c3)c2cc1C has a reported logD of 4.5
